Measured on: DDR2 (Homo sapiens)
pKi: −log10 of the molar value. Structures can show the parent of a compound that is named as a salt.
Reported pKi values follow for various compounds

Consider the worked cases shown below.
CCCc1ccc(C(=O)Nc2cc(CN3CCN(C)CC3)cc(C(F)(F)F)c2)cc1CNC(=O)c1cnc2ccccn12 [Example 28, formate salt]
6.00 to 6.52
Cc1cn(-c2cc(NC(=O)c3ccc(C)c(CNc4cnc5ccnn5c4)c3)cc(C(F)(F)F)c2)cn1
> 7.52
Cc1cn(-c2cc(NC(=O)c3ccc(C)c(CNc4ccnc(C#N)c4)c3)cc(C(F)(F)F)c2)cn1
6.52 to 7.52

Attention now turns to another entry.
Request the reported pKi associated with "Cc1ccc(C(=O)Nc2cccc(C(F)(F)F)c2)cc1CNc1cccnc1" > 7.52

----------
Reported Ki values follow for various compounds
Protein target, amino acids: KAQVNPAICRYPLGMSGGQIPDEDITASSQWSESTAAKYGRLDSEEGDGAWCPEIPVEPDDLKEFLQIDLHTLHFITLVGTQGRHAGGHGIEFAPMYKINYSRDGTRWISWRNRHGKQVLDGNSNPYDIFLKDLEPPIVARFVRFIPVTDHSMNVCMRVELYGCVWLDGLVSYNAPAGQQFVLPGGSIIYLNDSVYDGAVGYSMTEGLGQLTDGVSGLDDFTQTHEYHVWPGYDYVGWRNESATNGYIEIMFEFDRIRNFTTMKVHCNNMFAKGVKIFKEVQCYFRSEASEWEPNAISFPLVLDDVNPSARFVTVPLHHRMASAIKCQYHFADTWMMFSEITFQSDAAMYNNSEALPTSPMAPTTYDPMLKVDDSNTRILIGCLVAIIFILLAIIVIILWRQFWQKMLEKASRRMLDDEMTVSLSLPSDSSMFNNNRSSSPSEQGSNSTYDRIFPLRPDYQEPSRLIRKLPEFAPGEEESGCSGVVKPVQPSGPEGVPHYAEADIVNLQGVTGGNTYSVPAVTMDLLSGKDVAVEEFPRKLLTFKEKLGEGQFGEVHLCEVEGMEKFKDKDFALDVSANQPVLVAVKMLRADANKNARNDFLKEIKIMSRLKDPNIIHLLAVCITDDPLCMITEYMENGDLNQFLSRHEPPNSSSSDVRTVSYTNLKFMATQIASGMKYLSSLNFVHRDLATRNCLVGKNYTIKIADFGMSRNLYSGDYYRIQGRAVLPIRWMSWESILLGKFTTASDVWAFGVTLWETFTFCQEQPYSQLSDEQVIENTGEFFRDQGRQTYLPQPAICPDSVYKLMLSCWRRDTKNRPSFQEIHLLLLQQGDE

Cc1ccc(C(=O)Nc2cccc(OC(F)(F)F)c2)cc1CNc1cncnc1
< 0.03 µM
CC(C)c1ccc(C(=O)Nc2cc(CN3CCN(C)CC3)cc(C(F)(F)F)c2)cc1CNc1cnc2ccnn2c1
0.03 to 0.3 µM

Attention now turns to another entry.
Request the reported Ki associated with Cc1cn(-c2cc(NC(=O)c3ccc(C)c(CNC4CNc5ccnn5C4)c3)cc(C(F)(F)F)c2)cn1 (stereo not drawn) 0.3 to 1 µM
